Target: HLA-B*15:03
Assay: IEDB peptide-MHC binding, purified MHC/competitive/radioactivity; filed as Kd, often an IC50 or EC50 that approximates it; bounds were set here for any values at or beyond the usual limits of such assays
Conditions: source organism: Vaccinia virus WR
pKd: −log10 of the molar value.
The entries below come with measured pKd values attached.
Measured property: pKd

# Primary sequence, Measured property, Obs value
records = [
    ("LLYMFPNLF", "pKd", 9.96),
    ("FLFLNINHY", "pKd", 8.19),
    ("KGKAAAFAK", "pKd", 5.72),
    ("SLYPNVCIF", "pKd", 8.31),
    ("KSSPETQQM", "pKd", 6.97),
    ("FIRYRMHPM", "pKd", 7.67),
]

* * *

Molecular target: HLA-A*02:03
Test: IEDB peptide-MHC binding, purified MHC/competitive/fluorescence; filed as Kd, often an IC50 or EC50 that approximates it; bounds were set here for any values at or beyond the usual limits of such assays
Details: source organism: Shigella boydii CDC 3083-94

# Primary sequence, Kd
measured = [
    ("RNNDPTLPY", "≥ 20 µM"),
]

* * *

Molecular target: HLA-A*02:01
Experiment: IEDB peptide-MHC binding, purified MHC/direct/fluorescence; filed as Kd, often an IC50 or EC50 that approximates it; bounds were set here for any values at or beyond the usual limits of such assays
Details: source organism: Campylobacter jejuni RM1221
pKd: −log10 of the molar value.

# Primary sequence, pKd
records = [
    ("VQKVNPAPK", "≤ 4.70"),
    ("AKYEICLEK", "≤ 4.70"),
]

* * *

Target: HLA-B*40:01
Assay: IEDB peptide-MHC binding, purified MHC/direct/fluorescence; filed as Kd, often an IC50 or EC50 that approximates it; bounds were set here for any values at or beyond the usual limits of such assays
Conditions: source organism: Campylobacter jejuni RM1221
pKd: −log10 of the molar value.
Measured property: pKd

# Primary sequence, Assayed target, Obs value
data = [
    ("VQKVNPAPK", "HLA-B*40:01", "≤ 4.70"),
]

* * *

Target: HLA-A*01:01
Assay: IEDB peptide-MHC binding, purified MHC/competitive/fluorescence; filed as Kd, often an IC50 or EC50 that approximates it; bounds were set here for any values at or beyond the usual limits of such assays
Settings: source organism: Escherichia coli F11

# Primary sequence, Unit name, Kd
data = [
    ("RTDAWSYPV", "nM", 13.5),
]

* * *

Target: HLA-A*02:03
Experiment: IEDB peptide-MHC binding, purified MHC/direct/fluorescence; filed as Kd, often an IC50 or EC50 that approximates it; bounds were set here for any values at or beyond the usual limits of such assays
Conditions: source organism: Orthohantavirus andesense

# Primary sequence, Kd
measured = [
    ("LEEDIQHFL", "≥ 20 µM"),
]

* * *

Biological target: HLA-B*39:01
Test: IEDB peptide-MHC binding, purified MHC/direct/fluorescence; filed as Kd, often an IC50 or EC50 that approximates it; bounds were set here for any values at or beyond the usual limits of such assays
Conditions: source organism: Cowpox virus
Measured property: Kd (µM)

# Primary sequence, Unit name, Obs value
records = [
    ("YHRFGLYRL", "µM", 5.05),
]
